The measurements presented in this section are drawn from ChEMBL document CHEMBL1150313.

- Target Entity: Stromelysin-2 (Homo sapiens)
- Assay: Inhibition of human recombinant MMP10
pKi: −log10 of the molar value.
pKi for assorted compounds

>  <Compound>
O=C(NO)C(CNS(=O)(=O)c1ccc(I)cc1)NS(=O)(=O)c1ccc(I)cc1 (stereo not given)

>  <pKi>
5.80

$$$$
>  <Compound>
O=C(NO)C(CNS(=O)(=O)c1ccc(C(F)(F)F)cc1)NS(=O)(=O)c1ccc(C(F)(F)F)cc1 (stereo not given)

>  <pKi>
4.64

$$$$
>  <Compound>
O=C(NO)C(CNS(=O)(=O)c1ccc(F)cc1)NS(=O)(=O)c1ccc(F)cc1 (stereo not given)

>  <pKi>
5.34

$$$$
>  <Compound>
O=C(NO)C(CNS(=O)(=O)c1ccc([N+](=O)[O-])cc1)NS(=O)(=O)c1ccc([N+](=O)[O-])cc1 (stereo not given)

>  <pKi>
4.66

$$$$
>  <Compound>
O=C(NO)C(CNS(=O)(=O)c1ccccc1)NS(=O)(=O)c1ccccc1 (stereo not given)

>  <pKi>
6.45

$$$$

----------
- Target Entity: Stromelysin-2 (Homo sapiens)
- Assay: Inhibition of human recombinant MMP10
pKi: −log10 of the molar value.

>  <Compound>
COc1ccc(S(=O)(=O)NCC(NS(=O)(=O)c2ccc(OC)cc2OC)C(=O)NO)c(OC)c1 (stereo not drawn)

>  <Target Entity>
Stromelysin-2 (Homo sapiens)

>  <pKi>
3.43

$$$$
>  <Compound>
COc1ccc(S(=O)(=O)NCC(NS(=O)(=O)c2ccc(OC)cc2)C(=O)NO)cc1 (stereo not drawn)

>  <Target Entity>
Stromelysin-2 (Homo sapiens)

>  <pKi>
6.47

$$$$
>  <Compound>
O=C(NO)[C@H](CCCNS(=O)(=O)c1ccc(C(F)(F)F)cc1)NS(=O)(=O)c1ccc(C(F)(F)F)cc1

>  <Target Entity>
Stromelysin-2 (Homo sapiens)

>  <pKi>
3.47

$$$$

----------
- Target Entity: Stromelysin-2 (Homo sapiens)
- Assay: Inhibition of human recombinant MMP10
Activity calls are given as the source filed them. The rule behind the calls is not given here.
Assay Metric: Activity

>  <Compound>
O=C(NO)C(CNS(=O)(=O)c1cccc(C(F)(F)F)c1)NS(=O)(=O)c1cccc(C(F)(F)F)c1 (stereo unspecified)

>  <Reported Measurement>
inactive

$$$$
>  <Compound>
O=C(NO)[C@H](CCCNS(=O)(=O)c1ccc(I)cc1)NS(=O)(=O)c1ccc(I)cc1

>  <Reported Measurement>
inactive

$$$$
>  <Compound>
O=C(NO)C(CNS(=O)(=O)c1ccccc1C(F)(F)F)NS(=O)(=O)c1ccccc1C(F)(F)F (stereo unspecified)

>  <Reported Measurement>
inactive

$$$$
>  <Compound>
O=C(NO)C(CNS(=O)(=O)c1c(F)c(F)c(F)c(F)c1F)NS(=O)(=O)c1c(F)c(F)c(F)c(F)c1F (stereo unspecified)

>  <Reported Measurement>
inactive

$$$$
>  <Compound>
O=C(NO)[C@H](CCCNS(=O)(=O)c1ccccc1)NS(=O)(=O)c1ccccc1

>  <Reported Measurement>
inactive

$$$$
>  <Compound>
COc1ccc(S(=O)(=O)NCCC[C@H](NS(=O)(=O)c2ccc(OC)cc2)C(=O)NO)cc1

>  <Reported Measurement>
16 µM

$$$$

----------
- Target Entity: Matrix metalloproteinase-9 (Homo sapiens, UniProt P14780)
- Sequence (P14780 whole entry): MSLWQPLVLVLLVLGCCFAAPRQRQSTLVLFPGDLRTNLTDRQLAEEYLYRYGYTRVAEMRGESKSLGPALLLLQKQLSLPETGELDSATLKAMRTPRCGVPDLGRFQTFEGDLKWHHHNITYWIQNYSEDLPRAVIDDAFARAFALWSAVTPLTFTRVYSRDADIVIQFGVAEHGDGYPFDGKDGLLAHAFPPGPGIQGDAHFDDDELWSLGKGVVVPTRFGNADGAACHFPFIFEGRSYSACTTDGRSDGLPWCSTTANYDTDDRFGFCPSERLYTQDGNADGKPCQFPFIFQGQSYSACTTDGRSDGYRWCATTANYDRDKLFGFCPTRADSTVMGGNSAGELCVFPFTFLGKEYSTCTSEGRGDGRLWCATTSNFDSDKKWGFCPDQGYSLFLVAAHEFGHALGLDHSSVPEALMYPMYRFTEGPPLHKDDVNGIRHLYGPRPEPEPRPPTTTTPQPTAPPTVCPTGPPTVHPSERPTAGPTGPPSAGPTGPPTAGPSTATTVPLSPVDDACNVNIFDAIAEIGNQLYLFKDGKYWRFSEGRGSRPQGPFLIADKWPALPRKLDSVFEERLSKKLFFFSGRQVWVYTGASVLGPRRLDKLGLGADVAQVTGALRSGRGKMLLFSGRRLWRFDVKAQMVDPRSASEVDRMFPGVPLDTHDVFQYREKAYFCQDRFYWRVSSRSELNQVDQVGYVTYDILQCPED
- Assay: Inhibition of human recombinant MMP9

>  <Compound>
COc1ccc(S(=O)(=O)NCC(NS(=O)(=O)c2ccc(OC)cc2OC)C(=O)NO)c(OC)c1 (centres undefined)

>  <Ki [µM]>
124

$$$$
>  <Compound>
COc1ccc(S(=O)(=O)NCCC[C@H](NS(=O)(=O)c2ccc(OC)cc2)C(=O)NO)cc1

>  <Ki [µM]>
4.2

$$$$
>  <Compound>
O=C(NO)C(CNS(=O)(=O)c1ccc(Cl)cc1)NS(=O)(=O)c1ccc(Cl)cc1 (centres undefined)

>  <Ki [µM]>
0.23

$$$$
>  <Compound>
O=C(NO)C(CNS(=O)(=O)c1ccc(I)cc1)NS(=O)(=O)c1ccc(I)cc1 (centres undefined)

>  <Ki [µM]>
0.0026

$$$$
>  <Compound>
O=C(NO)C(CNS(=O)(=O)c1c(F)c(F)c(F)c(F)c1F)NS(=O)(=O)c1c(F)c(F)c(F)c(F)c1F (centres undefined)

>  <Ki [µM]>
212

$$$$
>  <Compound>
O=C(NO)C(CNS(=O)(=O)c1ccc(C(F)(F)F)cc1)NS(=O)(=O)c1ccc(C(F)(F)F)cc1 (centres undefined)

>  <Ki [µM]>
7.9

$$$$
>  <Compound>
O=C(NO)C(CNS(=O)(=O)c1ccc(Br)cc1)NS(=O)(=O)c1ccc(Br)cc1 (centres undefined)

>  <Ki [µM]>
0.15

$$$$
>  <Compound>
O=C(NO)C(CNS(=O)(=O)c1ccccc1)NS(=O)(=O)c1ccccc1 (centres undefined)

>  <Ki [µM]>
0.227

$$$$
>  <Compound>
CN(C)c1cccc2c(S(=O)(=O)NCC(NS(=O)(=O)c3cccc4c(N(C)C)cccc34)C(=O)NO)cccc12 (centres undefined)

>  <Ki [µM]>
150

$$$$
